# ASSAY_SYSTEM: SAE (Homo sapiens)
# Construct: endogenous in cells; host or cells: HCT116
# Sequence (Q9UBT2 1-640): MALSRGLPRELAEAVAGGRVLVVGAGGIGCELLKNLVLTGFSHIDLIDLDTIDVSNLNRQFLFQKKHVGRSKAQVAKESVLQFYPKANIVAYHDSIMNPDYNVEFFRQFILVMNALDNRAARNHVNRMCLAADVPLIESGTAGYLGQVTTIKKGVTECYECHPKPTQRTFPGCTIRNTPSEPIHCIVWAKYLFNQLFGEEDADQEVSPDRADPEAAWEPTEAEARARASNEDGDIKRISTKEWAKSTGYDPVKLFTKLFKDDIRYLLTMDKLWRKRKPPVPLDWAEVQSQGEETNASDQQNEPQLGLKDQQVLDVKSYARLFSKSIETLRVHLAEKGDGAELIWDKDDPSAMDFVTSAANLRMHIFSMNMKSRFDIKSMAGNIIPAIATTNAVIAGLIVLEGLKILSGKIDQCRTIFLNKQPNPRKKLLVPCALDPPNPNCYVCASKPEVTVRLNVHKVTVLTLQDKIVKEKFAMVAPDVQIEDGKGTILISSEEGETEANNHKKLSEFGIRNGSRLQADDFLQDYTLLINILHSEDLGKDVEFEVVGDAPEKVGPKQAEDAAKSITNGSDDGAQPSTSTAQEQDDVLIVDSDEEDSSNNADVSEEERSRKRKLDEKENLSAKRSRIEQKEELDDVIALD
# Sequence (Q9UBE0 1-346): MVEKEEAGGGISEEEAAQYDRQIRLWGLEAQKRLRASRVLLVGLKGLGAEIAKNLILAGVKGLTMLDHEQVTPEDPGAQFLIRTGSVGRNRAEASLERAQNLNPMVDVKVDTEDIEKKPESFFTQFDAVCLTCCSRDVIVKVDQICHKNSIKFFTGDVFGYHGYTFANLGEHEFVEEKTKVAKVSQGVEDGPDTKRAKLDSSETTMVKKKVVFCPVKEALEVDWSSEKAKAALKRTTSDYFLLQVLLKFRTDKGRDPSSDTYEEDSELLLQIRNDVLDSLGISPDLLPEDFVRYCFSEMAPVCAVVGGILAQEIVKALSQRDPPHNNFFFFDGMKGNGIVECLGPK
# PROTOCOL_DETAILS: SUMO IF: in vitro inhibitory activity assay against SAE in HCT116 cells (SUMO-2/3 immunofluorescence)
# Assay type: cell-based
# STATED_CONDITIONS: class symbols, 6 h at 37° C.
Entries and their measured IC50 follow.
OBSERVED_PROPERTY: IC50

CC1Cc2ccc(Cl)cc2[C@@]2(C=Cc3sc(C(=O)c4cncnc4N[C@H]4C[C@H](O)[C@@H](COS(N)(=O)=O)[C@@H]4F)cc32)N1 (stereo partly drawn) [Compound 1058] | 50 to 200 nM
N#Cc1ccc2c(c1)[C@@]1(C=Cc3sc(C(=O)c4cncnc4N[C@H]4C[C@H](O)[C@@H](COS(N)(=O)=O)[C@@H]4F)cc31)OCC2 [Compound 764] | ≤ 50 nM
N#Cc1ccc2c(c1)[C@]1(CCCc3sc(C(=O)c4cncnc4N[C@H]4C[C@H](O)[C@@H](COS(N)(=O)=O)[C@@H]4F)cc31)OCC2 [Compound 715] | > 200 nM

###

# ASSAY_SYSTEM: SAE (Homo sapiens, UniProt Q9UBT2)
# Construct: endogenous in cells; host or cells: HCT116
# PROTOCOL_DETAILS: SUMO IF: in vitro inhibitory activity assay against SAE in HCT116 cells (SUMO-2/3 immunofluorescence)
# Assay type: cell-based
# STATED_CONDITIONS: class symbols, 6 h at 37° C.
pIC50: −log10 of the molar value.
pIC50 values for the compounds below.
OBSERVED_PROPERTY: pIC50

N#Cc1ccc2c(c1)[C@@]1(CCCc3sc(C(=O)c4cncnc4N[C@H]4C[C@H](O)[C@@H](COS(N)(=O)=O)[C@@H]4F)cc31)NCC2 | ≥ 7.30
NS(=O)(=O)OC[C@H]1[C@H](F)[C@@H](Nc2ncncc2C(=O)c2cc3c(s2)CCCC32NCCc3ccc(Cl)nc32)C[C@@H]1O (stereo partly drawn) | ≥ 7.30
Cc1cc2c(cc1Cl)[C@@]1(CCc3sc(C(=O)c4cncnc4N[C@H]4C[C@H](O)[C@@H](COS(N)(=O)=O)[C@@H]4F)cc31)NCC2 | ≥ 7.30
Cc1cc2c(cc1Cl)[C@@]1(CCCc3sc(C(=O)c4cncnc4N[C@H]4C[C@H](O)[C@@H](COS(N)(=O)=O)[C@@H]4F)cc31)NCC2 | ≥ 7.30
Cc1sc(C(=O)c2cncnc2N[C@H]2C[C@H](O)[C@@H](COS(N)(=O)=O)[C@@H]2F)cc1C1OCc2ccc(Cl)cc21 (stereo partly drawn) | < 6.70
Cc1ccc2c(c1)C1(CCc3sc(C(=O)c4cncnc4N[C@H]4C[C@H](O)[C@@H](COS(N)(=O)=O)[C@@H]4F)cc31)NCC2 (stereo partly drawn) | 6.70 to 7.30
CC(C)N1Cc2sc(C(=O)c3cncnc3N[C@H]3C[C@H](O)[C@@H](COS(N)(=O)=O)[C@@H]3F)cc2C2(C1)OCCc1ccc(Cl)cc12 (stereo partly drawn) | 6.70 to 7.30
NS(=O)(=O)CC[C@H]1[C@H](F)[C@@H](Nc2ncncc2C(=O)c2cc3c(s2)CC[C@]32NCCc3ccc(Cl)cc32)C[C@@H]1O | 6.70 to 7.30
NS(=O)(=O)OC[C@H]1[C@H](F)[C@@H](Nc2ncncc2C(=O)c2cc3c(s2)C(F)=C[C@]32NCCc3ccc(Cl)cc32)C[C@@H]1O | ≥ 7.30
NS(=O)(=O)CC[C@H]1[C@H](F)[C@@H](Nc2ncncc2C(=O)c2cc3c(s2)CCC[C@]32NCCc3ccc(Cl)cc32)C[C@@H]1O | 6.70 to 7.30
Cc1sc(C(=O)c2cncnc2N[C@H]2C[C@H](O)[C@@H](COS(N)(=O)=O)[C@@H]2F)cc1C1(C)NCCc2ccc(Cl)cc21 (stereo partly drawn) | 6.70 to 7.30
NS(=O)(=O)OC[C@H]1[C@H](F)[C@@H](Nc2ncncc2C(=O)c2cc3c(s2)COC[C@]32NCCc3c(F)cc(Cl)cc32)C[C@@H]1O | 6.70 to 7.30
